target: human Dopamine D2 receptor (Homo sapiens, UniProt P14416); construct: purchased BioSignal, Inc. (Montreal, Canada); test: Binding affinity at the human dopamine D2 receptor; conditions: Table 3c; read-out: hD2 Ki
Sequence (P14416 whole entry): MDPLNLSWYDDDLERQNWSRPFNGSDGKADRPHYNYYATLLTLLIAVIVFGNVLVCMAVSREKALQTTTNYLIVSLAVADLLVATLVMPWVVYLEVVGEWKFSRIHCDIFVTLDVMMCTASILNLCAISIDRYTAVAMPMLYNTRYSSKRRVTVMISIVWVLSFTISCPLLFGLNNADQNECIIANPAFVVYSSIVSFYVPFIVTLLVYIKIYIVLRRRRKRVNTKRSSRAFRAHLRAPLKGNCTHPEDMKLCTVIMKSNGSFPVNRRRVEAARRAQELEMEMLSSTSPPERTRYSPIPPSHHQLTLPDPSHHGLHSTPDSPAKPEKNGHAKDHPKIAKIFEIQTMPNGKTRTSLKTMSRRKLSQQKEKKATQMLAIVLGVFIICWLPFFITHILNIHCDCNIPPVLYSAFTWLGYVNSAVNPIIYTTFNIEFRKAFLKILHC
pKi: −log10 of the molar value.
Quantity Kind: pKi

(P) CC(=O)Nc1cccc(C2CCN(CCCNC(=O)N3C(=O)NC(C)=C(C(C)=O)C3c3cc(F)c(F)c(F)c3)CC2)c1 (stereo not drawn)
(Q) COCC1=C(C(=O)OC)[C@H](c2ccc(F)c(F)c2)N(C(=O)NCCCN2CCC(c3cccc(NC(=O)C(C)C)c3)CC2)C(=O)N1
Of P and Q , which shows the smaller pKi value? Could you answer with the label of the item you picked?
P
